# Tested on: Vγ9Vδ2 T cells
# protocolNotes: Expansion of Vγ9Vδ2 T cells from peripheral blood
# Format: cell-based, human
# condition: Homo sapiens, T-cell
metric: EC50 (µM)
The reply should be a number in µM, with the unit left off.

Task item: Tell me measured EC50 for C/C(=C\CCP(=O)([O-])CP(=O)([O-])[O-])CO.[Na+].[Na+].[Na+] please.
Reply: 26

Task item: Tell me measured EC50 for C/C(=C\CCP(=O)(CP(=O)(OCOC(=O)C(C)(C)C)OCOC(=O)C(C)(C)C)OCOC(=O)C(C)(C)C)CO (stereo not shown) please.
Reply: 0.041

* * *

# Test system: K562 cells
# protocolNotes: K562 proliferation
# Assay type: cell-based, human
# condition: read-out: IC50, direct K562 toxicity; 72 hour treatment
metric: IC50

Task item: Tell me measured IC50 for COP(=O)(CC/C=C(\C)CO)CP(=O)(OC)OC (stereo not shown) please.
Reply: > 100 µM
